Target: T1, mouse IL-25 expressed with a C-terminal myc-myc-hexahistidine tag (mouse)
T1 construct: also called Mouse IL-25-MMH; mIL-25-MMH
T1 chain: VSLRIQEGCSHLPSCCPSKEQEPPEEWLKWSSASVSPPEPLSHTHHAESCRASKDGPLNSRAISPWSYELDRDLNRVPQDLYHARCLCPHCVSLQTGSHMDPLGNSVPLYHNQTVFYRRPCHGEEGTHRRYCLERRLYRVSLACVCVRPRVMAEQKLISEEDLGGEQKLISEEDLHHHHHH
Assay: SPR Biacore, antibody captured, 37C;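 note: Real-time sensorgrams of IL-25-MMH binding to purified anti-IL-25 antibodies, rate constants obtained by fitting a 1:1 binding model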
quantity-measured: t½ (s)

H4H10907P (antibody, human IgG4, V domains shown, H4H prefix = human IgG4 Fc) VH: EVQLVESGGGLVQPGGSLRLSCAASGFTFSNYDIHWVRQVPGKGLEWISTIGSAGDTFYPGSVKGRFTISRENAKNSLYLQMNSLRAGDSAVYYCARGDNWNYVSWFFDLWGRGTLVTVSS VL: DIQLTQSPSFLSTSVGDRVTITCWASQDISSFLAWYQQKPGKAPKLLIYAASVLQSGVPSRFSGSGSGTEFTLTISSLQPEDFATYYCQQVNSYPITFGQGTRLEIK: 18
